- MEASURED_ON: PDGFRA (human)
- ASSAY_EXPLANATION: KINOMEscan competition binding
- PROTOCOL_CONDITIONS: compound 10.0 µM
Here the recorded kinase still bound, per cent of control is given for each entry.
ASSAY_METRIC: kinase still bound, per cent of control (%)

| MOLECULE | ASSAY_METRIC | VALUE |
| --- | --- | --- |
| COc1cc(N2CCN(C)CC2)ccc1Nc1nc(N)c(C(=O)c2c(Cl)cccc2Cl)s1 | kinase still bound, per cent of control | 84 |
| C=CC(=O)Nc1cc(NC(=O)c2ccc(C)c(NC(=O)c3ccno3)c2)cc(C(F)(F)F)c1 | kinase still bound, per cent of control | 41 |
| Cc1ccc(C(=O)Nc2cccc(C(F)(F)F)c2)cc1Nc1cncc(C(N)=O)c1 | kinase still bound, per cent of control | 0.2 |
| OCCCNc1cc(-c2ccnc(Nc3cccc(Cl)c3)n2)ccn1 | kinase still bound, per cent of control | 100 |
| C=CC(=O)Nc1cccc(Nc2nc(N[C@H]3CC[C@H](N(C)C)CC3)nc3c2ncn3C(C)C)c1 | kinase still bound, per cent of control | 59 |
| CCC(=O)N1CCN(c2ccc(-n3c(=O)ccc4cnc5ccc(-c6cnc7ccccc7c6)cc5c43)cc2C(F)(F)F)CC1 | kinase still bound, per cent of control | 63 |
| O=C(NOC[C@H](O)CO)c1ccc(F)c(F)c1Nc1ccc(I)cc1F | kinase still bound, per cent of control | 96 |
| Cc1cc([C@@H](C)Nc2ccccc2C(=O)O)c2nc(N3CCOCC3)cc(=O)n2c1 | kinase still bound, per cent of control | 84 |
| O=C(NC1CC1)c1cccc(-c2ccc3c(NC(=O)C4CC4)n[nH]c3c2)c1 | kinase still bound, per cent of control | 29 |
| CCOc1cc2ncc(C#N)c(Nc3ccc(OCc4ccccn4)c(Cl)c3)c2cc1NC(=O)/C=C/CN(C)C | kinase still bound, per cent of control | 100 |
| O=C(O)c1ccc(Nc2ncc3c(n2)-c2ccc(Cl)cc2C(c2c(F)cccc2F)=NC3)cc1 | kinase still bound, per cent of control | 56 |
| COc1cc(C(=O)NC2CCN(C)CC2)ccc1Nc1ncc2c(n1)N(C1CCCC1)C(C)CC(=O)N2C (centres undefined) | kinase still bound, per cent of control | 100 |
| C[C@@H](Oc1cc(-n2cnc3ccc(CN4CCN(C)CC4)cc32)sc1C(N)=O)c1ccccc1C(F)(F)F | kinase still bound, per cent of control | 100 |
| C=CC(=O)Nc1cccc(Oc2nc(Nc3ccc(N4CCN(C)CC4)cc3OC)ncc2Cl)c1 | kinase still bound, per cent of control | 100 |
| N#Cc1c(NC(=O)c2cccc3ccccc23)sc2c1CCCC2 | kinase still bound, per cent of control | 89 |
| CN(C)C/C=C/C(=O)Nc1cccc(Nc2ncc3c(n2)N(C)c2ccccc2C(=O)N3C)c1 | kinase still bound, per cent of control | 100 |
| Cn1c(=O)n(-c2ccc(C(C)(C)C#N)cc2)c2c3cc(-c4cnc5ccccc5c4)ccc3ncc21 | kinase still bound, per cent of control | 100 |
| CCN1CCN(Cc2ccc(Nc3ncc4c(n3)N(C)c3ccccc3C(=O)N4C)cc2C(F)(F)F)CC1 | kinase still bound, per cent of control | 100 |
| Nc1ccc(-c2ccc3ncc4ccc(=O)n(-c5cccc(C(F)(F)F)c5)c4c3c2)cn1 | kinase still bound, per cent of control | 62 |
| COc1cc(C(=O)NC2CCN(C)CC2)ccc1Nc1ncc2c(n1)N(C1CCCC1)CCC(=O)N2C(C)C | kinase still bound, per cent of control | 100 |
| CCCS(=O)(=O)Nc1ccc(F)c(C(=O)c2c[nH]c3ncc(-c4ccc(Cl)cc4)cc23)c1F | kinase still bound, per cent of control | 0.45 |
| CC[C@@H]1C(=O)N(C)c2cnc(Nc3ccc(C(=O)NC4CCN(C)CC4)cc3OC)nc2N1C1CCCC1 | kinase still bound, per cent of control | 100 |
| O=C1Nc2ccc(I)cc2/C1=C/c1cc(Br)c(O)c(Br)c1 | kinase still bound, per cent of control | 22 |
| Cc1ccc(NC(=O)c2cccc(C(C)(C)C#N)c2)cc1Nc1ccc2ncn(C)c(=O)c2c1 | kinase still bound, per cent of control | 0.1 |

---

- MEASURED_ON: OXSR1 (human)
- ASSAY_EXPLANATION: KINOMEscan competition binding
- PROTOCOL_CONDITIONS: compound 10.0 µM
ASSAY_METRIC: kinase still bound, per cent of control (%)

| STRUCTURE | MEASURED_ON | VALUE |
| --- | --- | --- |
| C=CC(=O)Nc1cccc(Nc2nc(N[C@H]3CC[C@H](N(C)C)CC3)nc3c2ncn3C(C)C)c1 | OXSR1 (human) | 33 |
| O=C(NOC[C@H](O)CO)c1ccc(F)c(F)c1Nc1ccc(I)cc1F | OXSR1 (human) | 100 |
| CCOc1cc2ncc(C#N)c(Nc3ccc(OCc4ccccn4)c(Cl)c3)c2cc1NC(=O)/C=C/CN(C)C | OXSR1 (human) | 54 |
| N#Cc1c(NC(=O)c2cccc3ccccc23)sc2c1CCCC2 | OXSR1 (human) | 100 |
| OCCCNc1cc(-c2ccnc(Nc3cccc(Cl)c3)n2)ccn1 | OXSR1 (human) | 100 |

---

- MEASURED_ON: RPS6KA4 KD1 (human) (UniProt O75676)
- Sequence (O75676 whole entry, looked up): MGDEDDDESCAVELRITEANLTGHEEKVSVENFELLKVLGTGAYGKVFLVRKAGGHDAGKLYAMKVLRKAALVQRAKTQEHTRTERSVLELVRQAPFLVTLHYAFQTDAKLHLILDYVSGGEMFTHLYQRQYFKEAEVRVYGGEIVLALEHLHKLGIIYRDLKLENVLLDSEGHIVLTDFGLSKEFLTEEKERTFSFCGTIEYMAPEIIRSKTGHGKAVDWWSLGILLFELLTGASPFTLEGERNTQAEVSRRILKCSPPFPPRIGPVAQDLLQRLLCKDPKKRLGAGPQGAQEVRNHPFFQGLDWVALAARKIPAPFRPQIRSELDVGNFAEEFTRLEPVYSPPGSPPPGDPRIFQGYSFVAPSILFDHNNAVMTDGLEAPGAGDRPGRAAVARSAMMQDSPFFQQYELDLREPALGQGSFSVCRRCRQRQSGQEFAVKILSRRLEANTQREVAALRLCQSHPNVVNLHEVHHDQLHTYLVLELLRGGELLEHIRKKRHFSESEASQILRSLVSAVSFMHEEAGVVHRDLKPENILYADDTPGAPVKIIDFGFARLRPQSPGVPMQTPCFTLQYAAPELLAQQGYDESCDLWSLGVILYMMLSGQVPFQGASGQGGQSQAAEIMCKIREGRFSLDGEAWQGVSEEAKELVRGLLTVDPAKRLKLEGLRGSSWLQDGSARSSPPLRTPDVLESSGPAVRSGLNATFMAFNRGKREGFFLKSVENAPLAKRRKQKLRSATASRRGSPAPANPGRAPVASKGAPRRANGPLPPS
- ASSAY_EXPLANATION: KINOMEscan competition binding
- PROTOCOL_CONDITIONS: compound 10.0 µM

| COMPOUND | UNITS_OF_MEASURE | kinase still bound, per cent of control |
| --- | --- | --- |
| C=CC(=O)Nc1cccc(Oc2nc(Nc3ccc(N4CCN(C)CC4)cc3OC)ncc2Cl)c1 | % | 100 |
| O=C(O)c1ccc(Nc2ncc3c(n2)-c2ccc(Cl)cc2C(c2c(F)cccc2F)=NC3)cc1 | % | 100 |
| O=C1Nc2ccc(I)cc2/C1=C/c1cc(Br)c(O)c(Br)c1 | % | 87 |
| COc1cc(C(=O)NC2CCN(C)CC2)ccc1Nc1ncc2c(n1)N(C1CCCC1)C(C)CC(=O)N2C (stereo unspecified) | % | 100 |
| COc1cc(N2CCN(C)CC2)ccc1Nc1nc(N)c(C(=O)c2c(Cl)cccc2Cl)s1 | % | 100 |
| CC[C@@H]1C(=O)N(C)c2cnc(Nc3ccc(C(=O)NC4CCN(C)CC4)cc3OC)nc2N1C1CCCC1 | % | 100 |
| C[C@@H](Oc1cc(-n2cnc3ccc(CN4CCN(C)CC4)cc32)sc1C(N)=O)c1ccccc1C(F)(F)F | % | 68 |
| Cn1c(=O)n(-c2ccc(C(C)(C)C#N)cc2)c2c3cc(-c4cnc5ccccc5c4)ccc3ncc21 | % | 100 |
| N#Cc1c(NC(=O)c2cccc3ccccc23)sc2c1CCCC2 | % | 91 |
| CCOc1cc2ncc(C#N)c(Nc3ccc(OCc4ccccn4)c(Cl)c3)c2cc1NC(=O)/C=C/CN(C)C | % | 100 |
| Cc1cc([C@@H](C)Nc2ccccc2C(=O)O)c2nc(N3CCOCC3)cc(=O)n2c1 | % | 94 |

---

- MEASURED_ON: NTRK1 (human)
- ASSAY_EXPLANATION: KINOMEscan competition binding
- PROTOCOL_CONDITIONS: compound 10.0 µM
Here the recorded kinase still bound, per cent of control is given for each entry.

| COMPOUND | MEASURED_ON | kinase still bound, per cent of control / % |
| --- | --- | --- |
| C=CC(=O)Nc1cccc(Nc2nc(N[C@H]3CC[C@H](N(C)C)CC3)nc3c2ncn3C(C)C)c1 | NTRK1 (human) | 15 |
| CCC(=O)N1CCN(c2ccc(-n3c(=O)ccc4cnc5ccc(-c6cnc7ccccc7c6)cc5c43)cc2C(F)(F)F)CC1 | NTRK1 (human) | 64 |
| Cc1ccc(C(=O)Nc2cccc(C(F)(F)F)c2)cc1Nc1cncc(C(N)=O)c1 | NTRK1 (human) | 100 |
| N#Cc1c(NC(=O)c2cccc3ccccc23)sc2c1CCCC2 | NTRK1 (human) | 100 |
| COc1cc(N2CCN(C)CC2)ccc1Nc1nc(N)c(C(=O)c2c(Cl)cccc2Cl)s1 | NTRK1 (human) | 62 |
| Cc1ccc2nc(NCCN)c3ncc(C)n3c2c1 | NTRK1 (human) | 100 |
| OCCCNc1cc(-c2ccnc(Nc3cccc(Cl)c3)n2)ccn1 | NTRK1 (human) | 100 |
| COc1cc(C(=O)NC2CCN(C)CC2)ccc1Nc1ncc2c(n1)N(C1CCCC1)C(C)CC(=O)N2C (centres undefined) | NTRK1 (human) | 100 |
| O=C(NC1CC1)c1cccc(-c2ccc3c(NC(=O)C4CC4)n[nH]c3c2)c1 | NTRK1 (human) | 60 |
| CN(C)C/C=C/C(=O)Nc1cccc(Nc2ncc3c(n2)N(C)c2ccccc2C(=O)N3C)c1 | NTRK1 (human) | 18 |
| Cc1cc([C@@H](C)Nc2ccccc2C(=O)O)c2nc(N3CCOCC3)cc(=O)n2c1 | NTRK1 (human) | 88 |
| O=C(NOC[C@H](O)CO)c1ccc(F)c(F)c1Nc1ccc(I)cc1F | NTRK1 (human) | 100 |
| CCN1CCN(Cc2ccc(Nc3ncc4c(n3)N(C)c3ccccc3C(=O)N4C)cc2C(F)(F)F)CC1 | NTRK1 (human) | 34 |
| Cc1ccc(NC(=O)c2cccc(C(C)(C)C#N)c2)cc1Nc1ccc2ncn(C)c(=O)c2c1 | NTRK1 (human) | 98 |
| O=C(O)c1ccc(Nc2ncc3c(n2)-c2ccc(Cl)cc2C(c2c(F)cccc2F)=NC3)cc1 | NTRK1 (human) | 35 |
| C[C@@H](Oc1cc(-n2cnc3ccc(CN4CCN(C)CC4)cc32)sc1C(N)=O)c1ccccc1C(F)(F)F | NTRK1 (human) | 74 |
| Nc1ccc(-c2ccc3ncc4ccc(=O)n(-c5cccc(C(F)(F)F)c5)c4c3c2)cn1 | NTRK1 (human) | 57 |
| C=CC(=O)Nc1cc(NC(=O)c2ccc(C)c(NC(=O)c3ccno3)c2)cc(C(F)(F)F)c1 | NTRK1 (human) | 87 |
| O=C1Nc2ccc(I)cc2/C1=C/c1cc(Br)c(O)c(Br)c1 | NTRK1 (human) | 82 |

Data provenance is the kinase profiling compilation of Christmann-Franck et al. (2016).
